These entries and their values trace back to PubChem BioAssay AID430.

protocol description: cytotoxicity in HPDE-C7 cells, cell-based, fluorescence, HTS (AID 430);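 note: cells exposed to compound for 48 hours before viability readout; 0% = vehicle and 100% = reference cytotoxic drug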
test parameters: HPDE-C7 pancreatic duct cells viability, at 10 µM, active compounds read high
Among all 63,000 compounds or so, about 1,100 (1.7%) were called active. The list comes from a sample in which actives are over-represented; it also holds close analogues and randomly drawn compounds. Measured potencies and affinities stand elsewhere.
property measured: cytotoxicity (%)
Give the quantity in %, number only.

Solved cases (5 shown):
Value lookup for cytotoxicity; key = O=C(O)COc1ccc(C(=O)Cc2ccc3c(c2)OCCCO3)c(O)c1
-8.7

Value lookup for cytotoxicity; key = O=C1CC(N2CCN(c3nc4ccccc4s3)CC2)C(=O)N1Cc1cccs1 (configuration not stated)
12.3

Value lookup for cytotoxicity; key = COCCNc1ncnc2c1cnn2-c1ccc(Cl)cc1
4.6

Value lookup for cytotoxicity; key = CC(C)OCCCNc1ncnc2c1cnn2-c1ccccc1
26.6

Value lookup for cytotoxicity; key = O=C1CC(N2CCN(c3ccc(F)cc3)CC2)C(=O)N1Cc1cccs1 (configuration not stated)
-1.7

Continuing:
Value lookup for cytotoxicity; key = CCCCCCOc1ccc(C(=O)n2cnc(N)n2)cc1
71.3

Value lookup for cytotoxicity; key = CCCSc1nc(C)c(CC(=O)OCC)c(=O)[nH]1
4

Value lookup for cytotoxicity; key = COc1ccccc1-c1nnc2n1N=C(c1ccc(O)c(O)c1)CS2
60.1

Value lookup for cytotoxicity; key = CCCCNc1ncnc2c1cnn2-c1ccc(Cl)cc1
72.3

Value lookup for cytotoxicity; key = COc1ccc(C(=O)n2cnc(N)n2)cc1
2.7

Value lookup for cytotoxicity; key = O=C(Cc1ccc2c(c1)OCCO2)c1c(O)cc(O)cc1O
60.9

Value lookup for cytotoxicity; key = O=C(c1ccc(S(=O)(=O)N2CCOCC2)cc1)N1CCc2ccccc2C1
-7.6

====

protocol description: cytotoxicity in HPDE-C7 cells, cell-based, fluorescence, HTS (AID 430)
test parameters: HPDE-C7 pancreatic duct cells viability, at 10 µM, active compounds read high
Hit rate of the full screen: of about 63,000 compounds, about 1,100 (1.7%) were called active. This excerpt belongs to a sample that is enriched for actives. Measured potencies and affinities stand elsewhere.
Reported cytotoxicity values for the following compounds.
Give the quantity in %, number only.

Solved cases (5 shown):
Value lookup for cytotoxicity; key = Cc1cccc(-c2nnc(-c3ccc(N)cc3)o2)c1
-2

Value lookup for cytotoxicity; key = Cc1cc(C(=O)NCC2CCCO2)n(-c2ccccc2)n1 (stereo not drawn)
0.2

Value lookup for cytotoxicity; key = COc1ccccc1C(=O)Nc1nnc(-c2ccc(Cl)cc2)o1
-10.4

Value lookup for cytotoxicity; key = COc1ccc2c(c1)C=CC1(O2)N(CCO)c2ccccc2C1(C)C (stereo not drawn)
32.6

Value lookup for cytotoxicity; key = Cc1cc(Cl)c(S(=O)(=O)NCc2ccncc2)cc1OCC(N)=O
5.1

Continuing:
Value lookup for cytotoxicity; key = CN(C)c1ccc(C(=O)Nc2nnc(-c3ccc(Cl)cc3)o2)cc1
31.7

Value lookup for cytotoxicity; key = CCOC(=O)c1c(-c2cccs2)csc1NC(=O)CCCC(=O)O
8.6

Value lookup for cytotoxicity; key = CN(CCC#N)S(=O)(=O)c1ccc2c(c1)c(=O)n(C)c(=O)n2C
-12.5

Value lookup for cytotoxicity; key = CN(C)S(=O)(=O)c1ccc(-c2ccccc2)cc1
-2.3

Value lookup for cytotoxicity; key = CN(C)S(=O)(=O)c1ccc(C(=O)Nc2ccccn2)cc1
0.8

Value lookup for cytotoxicity; key = Cc1ccc(C(=O)NCc2ccc3c(c2)OCO3)cc1S(=O)(=O)N1CCOCC1
-5.3

Value lookup for cytotoxicity; key = CCOC(=O)c1[nH]c2ccc(Br)cc2c1NC(=O)CCN1CCCCC1
0.6

Value lookup for cytotoxicity; key = CCCC(c1nnnn1C1CCCCC1)N1CCN(c2ncccn2)CC1 (stereo not drawn)
-4

Value lookup for cytotoxicity; key = COC(=O)c1c(-c2cccs2)csc1NC(=O)CN1CCOCC1
-10.4

====

protocol description: cytotoxicity in HPDE-C7 cells, cell-based, fluorescence, HTS (AID 430)
test parameters: HPDE-C7 pancreatic duct cells viability, at 10 µM, active compounds read high
In all, about 63,000 compounds went through this assay and about 1,100 (1.7%) were called active. The entries come from a sample that favours actives as a whole. Potency and affinity values are given separately.
property measured: cytotoxicity (%)
Give the quantity in %, number only.

Solved cases (3 shown):
Value lookup for cytotoxicity; key = COCCOC(=O)C1=C(C)NC(=O)NC1c1ccc(OC(=O)c2ccco2)c(OC)c1 (configuration not stated)
-1.8

Value lookup for cytotoxicity; key = COc1ccc(CNc2nc3c(c(=O)n(Cc4ccc(Cl)cc4)c(=O)n3C)n2C)cc1
26.6

Value lookup for cytotoxicity; key = COc1ccc2[nH]c(=O)c(CN(Cc3nnnn3Cc3ccc(F)cc3)CC3CCCO3)cc2c1 (configuration not stated)
-39.9

Continuing:
Value lookup for cytotoxicity; key = COc1ccc(Cl)cc1NC(=O)N1CCN(S(C)(=O)=O)CC1
-6.5

Value lookup for cytotoxicity; key = O=C(c1ccco1)c1nnn(Cc2ccccc2)c1-c1ccccc1
-7.7

Value lookup for cytotoxicity; key = Cn1c(N2CCN(c3ccccn3)CC2)nc2c1c(=O)n(Cc1ccc(Cl)cc1)c(=O)n2C
66.4

Value lookup for cytotoxicity; key = O=C(Nc1ccc2nc(-c3ccco3)[nH]c2c1)c1cccs1
8

Value lookup for cytotoxicity; key = O=C(CC1c2ccccc2Oc2ccccc21)NCc1ccco1
-3.4

Value lookup for cytotoxicity; key = Cc1cc(C)nc(-n2nc(C)cc2NC(=O)CN2CCc3ccccc3C2)n1
19.1

Value lookup for cytotoxicity; key = O=c1[nH]c2ccc(S(=O)(=O)N3CCCCC3)cc2[nH]1
-1.4

====

protocol description: cytotoxicity in HPDE-C7 cells, cell-based, fluorescence, HTS (AID 430);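 note: cells exposed to compound for 48 hours before viability readout; 0% = vehicle and 100% = reference cytotoxic drug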
test parameters: HPDE-C7 pancreatic duct cells viability, at 10 µM
In all, about 63,000 compounds went through this assay and about 1,100 (1.7%) were called active. Cut-off read from the data, not from the text of the source: active = cytotoxicity above about 50%; inactive = the rest. Shown is part of a subset that was picked to be rich in actives. Potency and affinity values are given separately.
Please state which outcome applies, choosing from active, inactive

Example results:
I would be grateful if you could indicate the recorded call for COc1ccc(C2c3c(-c4ccccc4O)n[nH]c3C(=O)N2CCc2ccc(OC)c(OC)c2)cc1 (stereo not given) .
inactive

I would be grateful if you could indicate the recorded call for Cc1cc(O)c(-c2n[nH]c3c2C(c2cccc(O)c2)N(Cc2cccnc2)C3=O)cc1Cl (stereo not given) .
inactive

I would be grateful if you could indicate the recorded call for COCCCN1C(=O)c2[nH]nc(-c3cc(C)cc(C)c3O)c2C1c1ccc(O)c(OC)c1 (stereo not given) .
inactive

I would be grateful if you could indicate the recorded call for COCCCN1C(=O)c2[nH]nc(-c3ccccc3O)c2C1c1ccc(Cl)cc1 (stereo not given) .
active

Here is another compound to look at.
I would be grateful if you could indicate the recorded call for Cc1ccc(C2c3c(-c4ccccc4O)n[nH]c3C(=O)N2Cc2ccncc2)cc1 (stereo not given) .
inactive

====

protocol description: cytotoxicity in HPDE-C7 cells, cell-based, fluorescence, HTS (AID 430);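 note: cells exposed to compound for 48 hours before viability readout; 0% = vehicle and 100% = reference cytotoxic drug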
test parameters: HPDE-C7 pancreatic duct cells viability, at 10 µM, active compounds read high
Hit rate of the full screen: of about 63,000 compounds, about 1,100 (1.7%) were called active. Shown is part of a subset that was picked to be rich in actives. Measured potencies and affinities stand elsewhere.
Reported cytotoxicity values for the following compounds.
Give the quantity in %, number only.

Value lookup for cytotoxicity; key = O=C(Nc1cc(C(F)(F)F)ccc1Cl)C1CCN(c2nnc(-n3cccc3)s2)CC1
-14.7

Value lookup for cytotoxicity; key = CCCc1[nH]nc2c1C(c1ccncc1)C(C#N)=C(N)O2 (stereo not drawn)
6.1

Value lookup for cytotoxicity; key = COC(=O)c1ccc(OCC(O)Cn2nnc3ccccc32)cc1 (stereo not drawn)
3.4

Continuing:
Value lookup for cytotoxicity; key = CC1=CC(c2ccccc2)n2nc(N3C(=O)c4ccccc4C3=O)nc2N1 (stereo not drawn)
-0.7

Value lookup for cytotoxicity; key = CCCn1nnc(NC(=O)COc2ccc(Cl)cc2)n1
-10.6

Value lookup for cytotoxicity; key = O=C1NC(c2ccc3c(c2)OCO3)Nc2ccccc21 (stereo not drawn)
10.6

Value lookup for cytotoxicity; key = CCC1C(O)=C(c2ccccn2)C(=N)N1c1ccccc1 (stereo not drawn)
0.3

Value lookup for cytotoxicity; key = Oc1ccc(-c2[nH]ncc2-c2ccc(Cl)cc2)c(O)c1
33.3

Value lookup for cytotoxicity; key = Clc1ccccc1CN(Cc1ccccc1)c1ncnc2nc[nH]c12
82.7

Value lookup for cytotoxicity; key = COc1cccc(-n2c(CNC(=O)OC(C)(C)C)n[nH]c2=S)c1
2.9

====

protocol description: cytotoxicity in HPDE-C7 cells, cell-based, fluorescence, HTS (AID 430);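 note: cells exposed to compound for 48 hours before viability readout; 0% = vehicle and 100% = reference cytotoxic drug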
test parameters: HPDE-C7 pancreatic duct cells viability, at 10 µM, active compounds read high
The campaign covered roughly 63,000 compounds. About 1,100 (1.7%) were called active. Shown is part of a subset that was picked to be rich in actives. Results with a measured potency or affinity are listed apart.
Reported cytotoxicity values for the following compounds.
Give the quantity in %, number only.

Value lookup for cytotoxicity; key = COc1ccc(O)c(-c2cc(-c3cccs3)[nH]n2)c1
26.9

Value lookup for cytotoxicity; key = O=C(c1ccco1)N1CCN(c2nc(C3CC3)nc3sc4c(c23)CCCC4)CC1
53.5

Value lookup for cytotoxicity; key = CCN(c1ccccc1)c1cc(C)nc2nc(C)nn12
-20.9

Value lookup for cytotoxicity; key = CC(C)c1nc(N2CCN(C(=O)c3ccco3)CC2)c2c3c(sc2n1)CCCC3
-21.7

Value lookup for cytotoxicity; key = CCn1[nH]c(=O)c(=Nc2c(C)n(C)n(-c3ccccc3)c2=O)cc1-c1ccc(Cl)cc1
-9.8

Value lookup for cytotoxicity; key = CCOC(=O)c1sc2nc(NC(=O)C3CCCCC3)sc2c1C
66.7
